# System: M14
# ASSAY_PROCEDURE: Growth inhibition of human M14 cells at 10 uM by sulforhodamine B assay
# Type: functional, cell-based
Activity calls are given as the source filed them. The calls are words filed in the database; no cut-off is given here.
OBSERVATION_TYPE: growth inhibition (GI)

COc1ccc(-c2nc(-c3ccccc3)c(-c3ccccc3)n2C2CC2)cc1OC1CCCC1 ... Active
C#CCn1c(-c2ccc(OC)c(OC3CCCC3)c2)nc(-c2ccccc2)c1-c1ccccc1 ... Active
C#CCn1c(-c2ccc(OC3CCCC3)c(OC)c2)nc(-c2ccccc2)c1-c1ccccc1 ... Active
COc1ccc(-c2nc(-c3ccccc3)c(-c3ccccc3)n2C2CC2)cc1OC1CCCCC1 ... Active
COc1cc(-c2nc(-c3ccccc3)c(-c3ccccc3)n2C2CCCCC2)ccc1OC1CCCC1 ... Active

Task item: Record request: growth inhibition (GI) value, item `COc1ccc(-c2nc(-c3ccccn3)c(-c3ccccn3)n2CC(C)C)cc1OC1CCCC1`
Reply: Active

Task item: Next molecule: `COc1cc(-c2nc(-c3ccccc3)c(-c3ccccc3)n2Cc2ccccc2)ccc1OC1CCCCC1`
Reply: Active

Task item: Next molecule: `CCCCCCn1c(-c2ccc(OC)c(OC3CCCC3)c2)nc(-c2ccccc2)c1-c1ccccc1`
Reply: Active

Task item: Next molecule: `COc1ccc(-c2nc(-c3ccccc3)c(-c3ccccc3)[nH]2)cc1OC1CCCC1`
Reply: Active

Task item: Next molecule: `COc1cc(-c2nc(-c3ccccc3)c(-c3ccccc3)[nH]2)ccc1OC1CCCC1`
Reply: Active

* * *

# Tested on: HOP-62
# ASSAY_PROCEDURE: Growth inhibition of human HOP62 cells at 10 uM by sulforhodamine B assay
# Type: functional, cell-based
Activity calls are given as the source filed them. The rule behind the calls is not given here.
OBSERVATION_TYPE: growth inhibition (GI)

COc1cc(-c2nc(-c3ccccc3)c(-c3ccccc3)[nH]2)ccc1OC1CCCC1 ... Active
COc1ccc(-c2nc(-c3ccccc3)c(-c3ccccc3)n2C2CC2)cc1OC1CCCC1 ... Active
C#CCn1c(-c2ccc(OC)c(OC3CCCC3)c2)nc(-c2ccccc2)c1-c1ccccc1 ... Active
COc1ccc(-c2nc(-c3ccccc3)c(-c3ccccc3)[nH]2)cc1OC1CCCC1 ... Active
COc1cc(-c2nc(-c3ccccc3)c(-c3ccccc3)n2C2CCCCC2)ccc1OC1CCCC1 ... Active
COc1ccc(-c2nc(-c3ccccn3)c(-c3ccccn3)n2CC(C)C)cc1OC1CCCC1 ... Active
COc1cc(-c2nc(-c3ccccc3)c(-c3ccccc3)n2Cc2ccccc2)ccc1OC1CCCCC1 ... Active
C#CCn1c(-c2ccc(OC3CCCC3)c(OC)c2)nc(-c2ccccc2)c1-c1ccccc1 ... Active

Task item: Request body: readout growth inhibition (GI), system HOP-62, query `CCCCCCn1c(-c2ccc(OC)c(OC3CCCC3)c2)nc(-c2ccccc2)c1-c1ccccc1` . Return the value.
Reply: Active

Task item: Next molecule: `COc1ccc(-c2nc(-c3ccccc3)c(-c3ccccc3)n2C2CC2)cc1OC1CCCCC1`
Reply: Active

* * *

# Tested on: SR
# ASSAY_PROCEDURE: Growth inhibition of human SR cells at 10 uM by sulforhodamine B assay
# Assay type: functional, cell-based
The source made the active and inactive calls. No cut-off for these calls is given here.
OBSERVATION_TYPE: growth inhibition (GI)

COc1ccc(-c2nc(-c3ccccc3)c(-c3ccccc3)[nH]2)cc1OC1CCCC1 ... Active
C#CCn1c(-c2ccc(OC3CCCC3)c(OC)c2)nc(-c2ccccc2)c1-c1ccccc1 ... Active
COc1ccc(-c2nc(-c3ccccn3)c(-c3ccccn3)n2CC(C)C)cc1OC1CCCC1 ... Active
C#CCn1c(-c2ccc(OC)c(OC3CCCC3)c2)nc(-c2ccccc2)c1-c1ccccc1 ... Active

Task item: Record request: growth inhibition (GI) value, item `COc1cc(-c2nc(-c3ccccc3)c(-c3ccccc3)n2Cc2ccccc2)ccc1OC1CCCCC1`
Reply: Active
